Assay: Binding affinity to GGTase-1 by NBD fluorescence assay
Quantity measured: pKd
pKd field: float, defined as -log10 of concentration (mol/L).

Exercise: // returns reported pKd for input C/C(=C\COP(=O)(O)OP(=O)(O)O)CC/C=C(\C)CNC(=O)CCCC[C@@H]1SC[C@@H]2NC(=O)N[C@@H]21 [biotin-geranylpyrophosphate]
Key: 7.35

====

Assay: Binding affinity to RabGGTase by NBD fluorescence assay
Quantity measured: pKd
Worth noting: pKd values are minus log10 of concentrations stated in mol/L.

Exercise: Recorded pKd of C/C(=C\COP(=O)(O)OP(=O)(O)O)CC/C=C(\C)CNC(=O)CCCC[C@@H]1SC[C@@H]2NC(=O)N[C@@H]21 [biotin-geranylpyrophosphate] , please.
Key: 8.66

Reference source: ChEMBL document CHEMBL1221222
